- run_description: Fluorescence quantum yield determination
- Assay type: physicochemical
- experimental_context: in DMSO; calculated using riboflavin as the reference
Listed here: items and their measured φF fluorescence quantum yield.
Respond numerically, and do not add a unit to the figure.

Before answering, review these 3 worked examples.
INSERT INTO results (structure_string, quantitative_result) VALUES
  ('CCCCCCCCn1c(=O)nc2n(CCNC(=N)N)c3cc(C)c(C)cc3nc-2c1=O', 0.141),
  ('CCCCCCCCn1c(=O)nc2n(CCN)c3cc(Br)c(Br)cc3nc-2c1=O', 0.009),
  ('CCCCCCCCn1c(=O)nc2n(CCNC(=N)N)c3cc(Br)c(Br)cc3nc-2c1=O', 0.011);

Please fill in: φF fluorescence quantum yield reported for CCCCCCCCn1c(=O)nc2n(CCN)c3cc(C)c(C)cc3nc-2c1=O = 0.129
